Hello, the source for this data is patent US11628228B2, in case you need it.

# Test system: S180-bearing mice
# Measurement Protocol: Bio-distribution in tumor-bearing mice
# Type: in vivo
# Condition Label: S180-bearing mice, tail vein, 60 min
Reported Property: Muscle uptake (% ID/g)
Write the answer as a number in % ID/g, unit excluded.

Study these solved cases before continuing.
Compound	System Name	Muscle uptake / % ID/g
O=C(CCCC[N+]#[C][99Tc-5]([C]#[N+]CCCCC(=O)NC1C(O)OC(CO)C(O)C1O)([C]#[N+]CCCCC(=O)NC1C(O)OC(CO)C(O)C1O)([C]#[N+]CCCCC(=O)NC1C(O)OC(CO)C(O)C1O)([C]#[N+]CCCCC(=O)NC1C(O)OC(CO)C(O)C1O)[C]#[N+]CCCCC(=O)NC1C(O)OC(CO)C(O)C1O)NC1C(O)OC(CO)C(O)C1O (stereo not shown) [[^99mTc-(CN4DG)6]^+]	S180-bearing mice	0.27
O=C(CC[N+]#[C][99Tc-5]([C]#[N+]CCC(=O)NC1C(O)OC(CO)C(O)C1O)([C]#[N+]CCC(=O)NC1C(O)OC(CO)C(O)C1O)([C]#[N+]CCC(=O)NC1C(O)OC(CO)C(O)C1O)([C]#[N+]CCC(=O)NC1C(O)OC(CO)C(O)C1O)[C]#[N+]CCC(=O)NC1C(O)OC(CO)C(O)C1O)NC1C(O)OC(CO)C(O)C1O (stereo not shown) [[^99mTc-(CN2DG)6]^+]	S180-bearing mice	0.08
O=C(CCCCC[N+]#[C][99Tc-5]([C]#[N+]CCCCCC(=O)NC1C(O)OC(CO)C(O)C1O)([C]#[N+]CCCCCC(=O)NC1C(O)OC(CO)C(O)C1O)([C]#[N+]CCCCCC(=O)NC1C(O)OC(CO)C(O)C1O)([C]#[N+]CCCCCC(=O)NC1C(O)OC(CO)C(O)C1O)[C]#[N+]CCCCCC(=O)NC1C(O)OC(CO)C(O)C1O)NC1C(O)OC(CO)C(O)C1O (stereo not shown) [[^99mTc-(CN5DG)6]^+]	S180-bearing mice	0.27

// switching to the query compound
Task: Look up Muscle uptake: O=C(CCC[N+]#[C][99Tc-5]([C]#[N+]CCCC(=O)NC1C(O)OC(CO)C(O)C1O)([C]#[N+]CCCC(=O)NC1C(O)OC(CO)C(O)C1O)([C]#[N+]CCCC(=O)NC1C(O)OC(CO)C(O)C1O)([C]#[N+]CCCC(=O)NC1C(O)OC(CO)C(O)C1O)[C]#[N+]CCCC(=O)NC1C(O)OC(CO)C(O)C1O)NC1C(O)OC(CO)C(O)C1O (stereo not shown) [[^99mTc-(CN3DG)6]^+]
Output: 0.17

###

The reader will find reported Tumor uptake values listed item by item below.
# Test system: S180-bearing mice
# Measurement Protocol: Bio-distribution in tumor-bearing mice
# Type: in vivo
# Condition Label: S180-bearing mice, tail vein, 30 min
Write the answer as a number in % ID/g, unit excluded.

Compound	Tumor uptake, % ID/g
O=C(CCCCC[N+]#[C][99Tc-5]([C]#[N+]CCCCCC(=O)NC1C(O)OC(CO)C(O)C1O)([C]#[N+]CCCCCC(=O)NC1C(O)OC(CO)C(O)C1O)([C]#[N+]CCCCCC(=O)NC1C(O)OC(CO)C(O)C1O)([C]#[N+]CCCCCC(=O)NC1C(O)OC(CO)C(O)C1O)[C]#[N+]CCCCCC(=O)NC1C(O)OC(CO)C(O)C1O)NC1C(O)OC(CO)C(O)C1O (stereo not drawn) [[^99mTc-(CN5DG)6]^+]	1.83
O=C(CC[N+]#[C][99Tc-5]([C]#[N+]CCC(=O)NC1C(O)OC(CO)C(O)C1O)([C]#[N+]CCC(=O)NC1C(O)OC(CO)C(O)C1O)([C]#[N+]CCC(=O)NC1C(O)OC(CO)C(O)C1O)([C]#[N+]CCC(=O)NC1C(O)OC(CO)C(O)C1O)[C]#[N+]CCC(=O)NC1C(O)OC(CO)C(O)C1O)NC1C(O)OC(CO)C(O)C1O (stereo not drawn) [[^99mTc-(CN2DG)6]^+]	1.09

Task: Look up Tumor uptake: O=C(CCC[N+]#[C][99Tc-5]([C]#[N+]CCCC(=O)NC1C(O)OC(CO)C(O)C1O)([C]#[N+]CCCC(=O)NC1C(O)OC(CO)C(O)C1O)([C]#[N+]CCCC(=O)NC1C(O)OC(CO)C(O)C1O)([C]#[N+]CCCC(=O)NC1C(O)OC(CO)C(O)C1O)[C]#[N+]CCCC(=O)NC1C(O)OC(CO)C(O)C1O)NC1C(O)OC(CO)C(O)C1O (stereo not drawn) [[^99mTc-(CN3DG)6]^+]
Output: 1.49
